Target: HDAC1 (Homo sapiens (Human))
Assay: HDAC enzyme assay, HDAC1
Format: biochemical
Settings: 24 hours pre-incubation with enzyme; read-out: IC50 (nM) HDAC1
We begin with a simple list: items and their reported IC50.
Provide only the numeric value, understood in nM.

CN1CCC(Nc2ncc(C(=O)Nc3cc(-c4cccs4)ccc3N)cn2)(c2ccccc2)CC1 [Compound 026]    10
Nc1ccc(-c2cccs2)cc1NC(=O)c1cnc(NC2CCN(C(=O)N3CCCCC3)CC2)nc1 [Compound 009]    32
Nc1ccc(-c2ccccc2)cc1NC(=O)c1cnc(NC2CCNCC2)nc1 [Compound 039]    17

// switching to the query compound
Would you kindly share the measured IC50 for CN1CCC(Nc2ncc(C(=O)Nc3cc(-c4ccccc4)ccc3N)cn2)CC1 [Compound 040] ?
8

---

Test: Solubility
Assay type: physicochemical
METRIC_NAME: solubility (µM)
Please respond with the number in µM and leave the unit unwritten.

CC(C)C1(Nc2ncc(C(=O)Nc3cc(-c4cccs4)ccc3N)cn2)CCN(C(=O)N2CCN(C)CC2)CC1 [Compound 002]    42.7
CN1CCN(C(=O)N2CCC(Nc3ccc(C(=O)Nc4cc(-c5cccs5)ccc4N)cc3)CC2)CC1 [Compound 005]    13.8
Nc1ccc(-c2cccs2)cc1NC(=O)c1cnc(NC2CCN(C(=O)N3CCOCC3)CC2)nc1 [Compound 003]    54

Here is another compound to look at.
Bench note: what solubility did CC(C)NC(=O)N1CCC(C)(Nc2ncc(C(=O)Nc3cc(-c4cccs4)ccc3N)cn2)CC1 [Compound 001] show?
16.9

---

Molecular target: hERG channel (Homo sapiens (Human))
Sequence (Q12809 whole entry): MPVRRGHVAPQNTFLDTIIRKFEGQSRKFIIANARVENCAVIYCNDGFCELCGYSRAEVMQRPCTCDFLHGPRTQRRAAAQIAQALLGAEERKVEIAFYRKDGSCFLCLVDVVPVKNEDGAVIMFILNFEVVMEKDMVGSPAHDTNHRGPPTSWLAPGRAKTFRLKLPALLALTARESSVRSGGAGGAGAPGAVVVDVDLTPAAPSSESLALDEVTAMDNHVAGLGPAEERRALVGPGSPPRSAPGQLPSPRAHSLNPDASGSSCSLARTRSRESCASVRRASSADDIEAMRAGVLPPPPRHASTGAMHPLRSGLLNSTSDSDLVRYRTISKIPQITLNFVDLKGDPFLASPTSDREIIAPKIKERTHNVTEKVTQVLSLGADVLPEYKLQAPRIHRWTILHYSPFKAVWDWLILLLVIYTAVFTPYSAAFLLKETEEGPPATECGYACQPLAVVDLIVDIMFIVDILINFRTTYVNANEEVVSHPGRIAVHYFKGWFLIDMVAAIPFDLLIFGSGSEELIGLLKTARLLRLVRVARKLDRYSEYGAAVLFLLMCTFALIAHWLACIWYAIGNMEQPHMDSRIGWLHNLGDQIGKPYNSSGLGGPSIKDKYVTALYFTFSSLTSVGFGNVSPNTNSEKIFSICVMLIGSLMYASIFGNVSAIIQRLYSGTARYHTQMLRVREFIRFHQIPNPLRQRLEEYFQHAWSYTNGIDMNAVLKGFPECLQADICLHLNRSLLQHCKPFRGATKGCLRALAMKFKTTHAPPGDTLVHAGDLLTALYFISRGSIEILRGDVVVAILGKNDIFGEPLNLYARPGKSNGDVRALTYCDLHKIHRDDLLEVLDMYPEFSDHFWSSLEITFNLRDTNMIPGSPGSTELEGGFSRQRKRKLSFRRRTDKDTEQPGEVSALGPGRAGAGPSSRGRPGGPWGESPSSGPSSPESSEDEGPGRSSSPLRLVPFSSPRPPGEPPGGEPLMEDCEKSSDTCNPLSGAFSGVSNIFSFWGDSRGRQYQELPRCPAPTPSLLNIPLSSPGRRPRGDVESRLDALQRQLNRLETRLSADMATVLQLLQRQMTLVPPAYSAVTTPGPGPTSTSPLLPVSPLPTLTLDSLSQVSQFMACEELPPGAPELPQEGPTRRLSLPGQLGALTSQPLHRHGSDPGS
Assay: hERG assay (QPatch, CHO cell line expressing hERG channels)
Format: cell-based
Conditions: In vitro tox
# hERG annotations

Observe how each entry below is paired with its result.
Nc1ccc(-c2cccs2)cc1NC(=O)c1ccc(NC2CCN(C(=O)N3CCCC3)CC2)cc1    >30 µM
CC(C)NC(=O)N1CCC(C)(Nc2ncc(C(=O)Nc3cc(-c4cccs4)ccc3N)cn2)CC1    >30 µM
CN1CCN(C(=O)N2CCC(Nc3ccc(C(=O)Nc4cc(-c5cccs5)ccc4N)cc3)CC2)CC1    13.8 µM
CC(C)C1(Nc2ncc(C(=O)Nc3cc(-c4cccs4)ccc3N)cn2)CCN(C(=O)N2CCN(C)CC2)CC1    >30 µM

Pending compound:
Look at this compound and give its reported hERG. Nc1ccc(-c2cccs2)cc1NC(=O)c1cnc(NC2CCN(C(=O)N3CCOCC3)CC2)nc1
>30 µM

---

Target: HDAC3 (Homo sapiens (Human), UniProt O15379)
Sequence (O15379 whole entry): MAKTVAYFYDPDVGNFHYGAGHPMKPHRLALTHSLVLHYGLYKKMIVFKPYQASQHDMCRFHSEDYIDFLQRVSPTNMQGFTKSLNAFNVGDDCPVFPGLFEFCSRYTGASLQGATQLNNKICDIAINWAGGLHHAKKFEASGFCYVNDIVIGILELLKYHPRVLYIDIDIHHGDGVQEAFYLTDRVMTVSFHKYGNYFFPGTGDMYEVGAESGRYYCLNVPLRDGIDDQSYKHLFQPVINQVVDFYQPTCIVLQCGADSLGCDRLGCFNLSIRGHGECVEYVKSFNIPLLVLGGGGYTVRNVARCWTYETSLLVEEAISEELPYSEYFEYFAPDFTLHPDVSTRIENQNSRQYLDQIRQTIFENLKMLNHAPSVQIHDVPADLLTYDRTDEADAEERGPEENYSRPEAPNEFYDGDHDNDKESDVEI
Sequence (Q9Y618 395-489 partner): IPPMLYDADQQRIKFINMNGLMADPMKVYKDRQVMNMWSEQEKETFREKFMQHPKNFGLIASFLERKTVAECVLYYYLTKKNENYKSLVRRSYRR
Assay: HDAC enzyme assay, HDAC3
Type: biochemical
Details: reference compound; read-out: IC50 for HDAC3
METRIC_NAME: IC50

# lookup: IC50 of Nc1ccc(-c2cccs2)cc1NC(=O)c1ccc2nc(N3CCNCC3)ccc2c1 [Compound A, reference compound]
~114 nM

---

IC50 by entry:
Target: HDAC2 (Homo sapiens (Human), UniProt Q92769)
Sequence (Q92769 whole entry): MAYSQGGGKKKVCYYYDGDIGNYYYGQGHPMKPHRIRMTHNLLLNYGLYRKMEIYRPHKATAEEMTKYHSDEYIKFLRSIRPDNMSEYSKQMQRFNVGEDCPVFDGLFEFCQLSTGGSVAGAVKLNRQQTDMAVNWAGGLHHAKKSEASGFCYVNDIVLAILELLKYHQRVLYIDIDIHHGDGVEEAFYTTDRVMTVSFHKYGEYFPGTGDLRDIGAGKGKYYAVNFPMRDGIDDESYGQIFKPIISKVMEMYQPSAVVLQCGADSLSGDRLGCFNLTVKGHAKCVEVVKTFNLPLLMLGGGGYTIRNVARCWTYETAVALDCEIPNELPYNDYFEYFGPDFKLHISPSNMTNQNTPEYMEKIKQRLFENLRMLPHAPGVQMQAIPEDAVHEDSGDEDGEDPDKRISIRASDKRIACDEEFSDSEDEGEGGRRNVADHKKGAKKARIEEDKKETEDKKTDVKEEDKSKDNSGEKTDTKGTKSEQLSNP
Experiment: HDAC enzyme assay, HDAC2
Format: biochemical
Conditions: 24 hours pre-incubation with enzyme; read-out: IC50 (nM) HDAC2
Give your result in nM as a bare value.

Given CC1(Nc2ccc(C(=O)Nc3cc(-c4cccs4)ccc3N)cc2)CCN(C(=O)N2CCNCC2)CC1 , state its recorded IC50.
12

Returns the measured IC50 for the input compound. Input: Nc1ccc(-c2cccs2)cc1NC(=O)c1ccc(NC2CCN(C(=O)C3CCOCC3)CC2)cc1
18

# input compound: CCC1(Nc2ccc(C(=O)Nc3cc(-c4cccs4)ccc3N)cc2)CCN(C(=O)N2CCOCC2)CC1 ; wanted: its IC50
99

Field request: IC50 | item: CC1(Nc2ccc(C(=O)Nc3cc(-c4cccs4)ccc3N)cc2)CCN(C(=O)N2CCCC2)CC1
14

I have this compound here, Nc1ccc(-c2cccs2)cc1NC(=O)c1ccc(NC2CCN(C(=O)C3CCCCC3)CC2)cc1 , and I need its recorded IC50.
72

Can you share its IC50? I mean this compound: CC1(Nc2ccc(C(=O)Nc3cc(-c4ccncc4)ccc3N)cc2)CCN(C(=O)N2CCCC2)CC1
9.4

Which value of IC50 has been reported for Nc1ccc(-c2ccncc2)cc1NC(=O)c1ccc(NC2CCN(C(=O)N3CCCC3)CC2)cc1 in the records?
20

---

The reader will find reported Cmax values listed item by item below.
Test: Rat cassette pharmacokinetics
Format: in vivo
Conditions: male, SD, plasma; rat cassette dosing, 5 mg/kg PO
State the value with its unit after it.

Fill blank: measured Cmax of the compound CC(C)NC(=O)N1CCC(C)(Nc2ncc(C(=O)Nc3cc(-c4cccs4)ccc3N)cn2)CC1 is ____.
988 ng/mL

# input compound: Nc1ccc(-c2cccs2)cc1NC(=O)c1cnc(NC2CCN(C(=O)N3CCOCC3)CC2)nc1 ; wanted: its Cmax
2320 ng/mL

Looking for the measured Cmax of CC(C)C1(Nc2ncc(C(=O)Nc3cc(-c4cccs4)ccc3N)cn2)CCN(C(=O)N2CCN(C)CC2)CC1 , can you help?
1010 ng/mL

If you can, please state the reported Cmax value of Nc1ccc(-c2cccs2)cc1NC(=O)c1ccc(NC2CCN(C(=O)N3CCCC3)CC2)cc1 .
1520 ng/mL

So what does the record say about Cmax for CN1CCN(C(=O)N2CCC(Nc3ccc(C(=O)Nc4cc(-c5cccs5)ccc4N)cc3)CC2)CC1 ?
569 ng/mL

---

Target: HDAC1 (Homo sapiens (Human), UniProt Q13547)
Sequence (Q13547 whole entry): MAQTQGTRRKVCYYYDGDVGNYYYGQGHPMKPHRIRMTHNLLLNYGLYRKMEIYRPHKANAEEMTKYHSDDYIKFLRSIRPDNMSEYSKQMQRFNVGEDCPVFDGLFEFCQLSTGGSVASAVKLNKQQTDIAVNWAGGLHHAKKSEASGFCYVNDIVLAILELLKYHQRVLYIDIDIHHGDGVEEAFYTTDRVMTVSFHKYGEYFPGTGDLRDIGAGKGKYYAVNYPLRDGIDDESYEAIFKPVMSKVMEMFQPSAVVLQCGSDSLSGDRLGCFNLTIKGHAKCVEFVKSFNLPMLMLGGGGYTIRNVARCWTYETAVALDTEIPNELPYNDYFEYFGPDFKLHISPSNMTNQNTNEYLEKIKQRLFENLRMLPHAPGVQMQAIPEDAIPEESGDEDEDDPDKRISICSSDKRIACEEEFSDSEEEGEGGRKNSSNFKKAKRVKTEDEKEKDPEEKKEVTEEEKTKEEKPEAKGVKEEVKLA
Assay: HDAC enzyme assay, HDAC1
Format: biochemical
Settings: 24 hours pre-incubation with enzyme; read-out: IC50 (nM) HDAC1
METRIC_NAME: IC50 (nM)
Please give a number only; it is taken to be in nM.

Below, 5 compounds whose answers are already recorded.
CCC1(Nc2ccc(C(=O)Nc3cc(-c4cccs4)ccc3N)cc2)CCN(C(=O)N2CCOCC2)CC1    18
CC1(Nc2ncc(C(=O)Nc3cc(-c4cccs4)ccc3N)cn2)CCN(C(=O)N2CCNCC2)CC1    7.3
Nc1ccc(-c2cccs2)cc1NC(=O)c1ccc(NC2CCN(C(=O)C3(O)CCCC3)CC2)cc1    7
CC1(Nc2ccc(C(=O)Nc3cc(-c4cccnc4)ccc3N)cc2)CCN(C(=O)N2CCOCC2)CC1    91
CC(C)C1(Nc2ncc(C(=O)Nc3cc(-c4cccs4)ccc3N)cn2)CCN(C(=O)N2CCN(C)CC2)CC1    7

What value of IC50 has been reported for the following compound? CN1CCC(Nc2ncc(C(=O)Nc3cc(-c4ccccc4)ccc3N)cn2)c2ccccc21 (stereo not shown)
210

Requested read-out: IC50. Entry: CN1CCN(C(=O)N2CCC(C)(Nc3ccc(C(=O)Nc4cc(-c5cccs5)ccc4N)cc3)CC2)CC1
3.2

I'd like to know its IC50. The compound in question is Nc1ccc(-c2cccs2)cc1NC(=O)c1ccc(NC2CCN(c3ccccc3)CC2)cc1
74

Item under review: Nc1ccc(-c2cccs2)cc1NC(=O)c1ccc(NC2CCN(C(=O)C3CCOCC3)CC2)cc1 . Reported IC50?
5

---

The reader will find reported CL renal values listed item by item below.
Assay: Rat cassette pharmacokinetics
Type: in vivo
Settings: male, SD, plasma; rat cassette dosing, IV 1 mg/kg; read-out: IV Clr. (converted)
Express the result in mL/min/kg but write the number alone.

Examples from the recorded data:
CC(C)C1(Nc2ncc(C(=O)Nc3cc(-c4cccs4)ccc3N)cn2)CCN(C(=O)N2CCN(C)CC2)CC1 [Compound 002]    20
CN1CCN(C(=O)N2CCC(Nc3ccc(C(=O)Nc4cc(-c5cccs5)ccc4N)cc3)CC2)CC1 [Compound 005]    6.33
Nc1ccc(-c2cccs2)cc1NC(=O)c1cnc(NC2CCN(C(=O)N3CCOCC3)CC2)nc1 [Compound 003]    2
Nc1ccc(-c2cccs2)cc1NC(=O)c1ccc(NC2CCN(C(=O)N3CCCC3)CC2)cc1 [Compound 006]    2.5

# input compound: CC(C)NC(=O)N1CCC(C)(Nc2ncc(C(=O)Nc3cc(-c4cccs4)ccc3N)cn2)CC1 [Compound 001] ; wanted: its CL renal
8.83

---

Molecular target: HDAC3 (Homo sapiens (Human), UniProt O15379)
Assay: HDAC enzyme assay, HDAC3
Assay type: biochemical
Details: 24 hours pre-incubation with enzyme; read-out: IC50 (nM) HDAC3
Description: Compounds for testing were diluted in DMSO to 50 fold the final concentration and a ten point three fold dilution series was made. […] The substrate tripeptide substrate 3 (synthesized in house) for each enzyme was equal to the Km as determined by a substrate titration curve. […] The substrate/trypsin mix was added to the enzyme/compound mix, the plate was shaken for 60 seconds and placed into a Spectramax M5 microtiter plate reader. […]
Measured IC50 values are reported for all entries that follow.
The figure you give is taken to be in nM; do not add the unit.

CC(C)C1(Nc2ncc(C(=O)Nc3cc(-c4cccs4)ccc3N)cn2)CCN(C(=O)N2CCN(C)CC2)CC1 [Compound 002]    203
CC1(Nc2ncc(C(=O)Nc3cc(-c4cccs4)ccc3N)cn2)CCN(C(=O)Oc2ccccc2)CC1 [Compound 007]    929
CN1CCN(C(=O)N2CCC(C)(Nc3ncc(C(=O)Nc4cc(-c5cccs5)ccc4N)cn3)CC2)CC1 [Compound 011]    201
CN1CCN(C(=O)N2CCC(C)(Nc3ccc(C(=O)Nc4cc(-c5cccs5)ccc4N)cc3)CC2)CC1 [Compound 016]    145
Nc1ccc(-c2cccs2)cc1NC(=O)c1ccc(NC2CCN(C(=O)C3(O)CCCCC3)CC2)cc1 [Compound 024]    287

May I ask what IC50 has been recorded for CN1CCC(Nc2ncc(C(=O)Nc3cc(-c4ccccc4)ccc3N)cn2)CC1 [Compound 040] ?
277

// lookup IC50 for Nc1ccc(-c2cccs2)cc1NC(=O)c1ccc(NC2CCN(C(=O)C3CCOCC3)CC2)cc1 [Compound 022]
203

May I ask what IC50 has been recorded for CC1(Nc2ccc(C(=O)Nc3cc(-c4ccncc4)ccc3N)cc2)CCN(C(=O)N2CCCC2)CC1 [Compound 030] ?
466

State the recorded IC50 for this entry: CC1(Nc2ccc(C(=O)Nc3cc(-c4ccccc4)ccc3N)cc2C2CC2)CCN(C(=O)N2CCOCC2)CC1 [Compound 037]
1860

Param item = CN1CCC(Nc2ncc(C(=O)Nc3cc(-c4cccs4)ccc3N)cn2)(c2ccccc2)CC1 [Compound 026] ; retrieve measured IC50.
315

Query (compound): Nc1ccc(-c2cccs2)cc1NC(=O)c1ccc(NC2CCN(C(=O)C3CCCCC3)CC2)cc1 [Compound 021] ; field requested: IC50
555

The reported measurements were obtained from patent US9790180B2.
